Data provenance is ChEMBL document CHEMBL3576786.

Readings of pIC50 for the listed molecules
System: A549
Experiment: Cytotoxicity against human A549 assessed as inhibition of cell proliferation by MTT assay
Type: cell-based
pIC50: −log10 of the molar value.

# Chem smiles, Result comparator, pIC50
data = [
    ("CCOc1cc(C=O)ccc1OCCCOc1ccc(-n2cccc2)cc1", "=", 3.65),
    ("Oc1cc(O)cc(OCCCOc2ccc(-n3cccc3)cc2)c1", "=", 3.64),
    ("c1ccc2cc(OCCOc3ccc(-n4cccc4)cc3)ccc2c1", "=", 3.63),
    ("Cc1ccc(C)n1-c1ccc(OCCCOc2ccc(-n3cccc3)cc2)cc1", "=", 3.63),
    ("c1ccc2cc(OCCCOc3ccc(-n4cccc4)cc3)ccc2c1", "=", 3.63),
    ("Oc1cc(O)cc(OCCOc2ccc(-n3cccc3)cc2)c1", "=", 3.63),
    ("CCOc1cc(C=O)ccc1OCCOc1ccc(-n2cccc2)cc1", "=", 3.66),
    ("NNC(=O)c1ccncc1", "<", 3.35),
    ("c1ccc2c(OCCOc3ccc(-n4cccc4)cc3)cccc2c1", "=", 3.67),
    ("c1ccc2c(OCCCOc3ccc(-n4cccc4)cc3)cccc2c1", "=", 3.61),
    ("COc1cc(C=O)ccc1OCCCOc1ccc(-n2cccc2)cc1", "=", 3.68),
]
